Taken from patent US8008311B2.

Target: KSP motor domain (Homo sapiens, UniProt P52732)
Construct: 100 nM KSP motor domain, 50 μg/ml microtubules
Sequence (P52732 18-359 limits assumed): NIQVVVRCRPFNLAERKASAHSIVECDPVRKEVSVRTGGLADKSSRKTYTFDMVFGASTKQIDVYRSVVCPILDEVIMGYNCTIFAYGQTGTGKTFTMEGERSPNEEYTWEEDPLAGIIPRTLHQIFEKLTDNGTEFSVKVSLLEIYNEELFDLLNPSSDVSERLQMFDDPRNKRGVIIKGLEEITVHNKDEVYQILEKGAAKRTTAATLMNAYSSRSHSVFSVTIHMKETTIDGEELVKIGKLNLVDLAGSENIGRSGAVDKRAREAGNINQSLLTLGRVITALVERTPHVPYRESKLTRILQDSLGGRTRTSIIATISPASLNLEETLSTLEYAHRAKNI
Test: KSP ATPase assay (IC50 / Ki)
Format: biochemical
Conditions: racemate; read-out: IC50 (μM) Racemate
Listing of entries alongside the reported IC50.
Please state the figure in µM; there is no need to write the unit.

The cases that follow already have their IC50 on record.
>>> result_value("CCC(c1nc2ccccc2c(=O)n1Cc1ccccc1)N(CCN(C)C)C(=O)c1ccc(Br)cc1 (single isomer, unassigned)")
0.06
>>> result_value("CCC(c1nc2ccccc2c(=O)n1Cc1ccccc1)N(CCN(C)C)C(=O)c1cccc2ccccc12 (single isomer, unassigned)")
12.7

Give me measured IC50, please, for this compound: CC(c1nc2ccccc2c(=O)n1Cc1ccccc1)N(CCN(C)C)C(=O)c1ccc(Br)cc1 (single isomer, unassigned)
2.6

* * *

Biological target: KSP motor domain (Homo sapiens, UniProt P52732)
Construct: 100 nM KSP motor domain, 50 μg/ml microtubules
Sequence (P52732 18-359 limits assumed): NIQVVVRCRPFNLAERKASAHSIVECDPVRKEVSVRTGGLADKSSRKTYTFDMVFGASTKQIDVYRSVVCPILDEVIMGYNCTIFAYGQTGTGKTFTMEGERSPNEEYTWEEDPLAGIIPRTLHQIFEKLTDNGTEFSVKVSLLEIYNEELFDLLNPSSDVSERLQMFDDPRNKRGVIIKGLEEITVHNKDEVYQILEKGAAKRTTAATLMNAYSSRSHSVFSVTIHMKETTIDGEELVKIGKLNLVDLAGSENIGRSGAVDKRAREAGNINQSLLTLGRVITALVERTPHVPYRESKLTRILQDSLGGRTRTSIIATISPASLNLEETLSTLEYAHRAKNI
Assay: KSP ATPase assay (IC50 / Ki)
Assay type: biochemical
Settings: S enantiomer, synthesized as single enantiomer; read-out: Ki (μM) S enantiomer
PROPERTY: Ki (µM)
Please state the figure in µM; there is no need to write the unit.

Give me measured Ki, please, for this molecule: CC(c1nc2ccccc2c(=O)n1Cc1ccccc1)N(CCN)C(=O)c1ccc(Br)cc1 (centres unmarked)
2

* * *

Biological target: KSP motor domain (Homo sapiens, UniProt P52732)
Construct: 100 nM KSP motor domain, 50 μg/ml microtubules
Sequence (P52732 18-359 limits assumed): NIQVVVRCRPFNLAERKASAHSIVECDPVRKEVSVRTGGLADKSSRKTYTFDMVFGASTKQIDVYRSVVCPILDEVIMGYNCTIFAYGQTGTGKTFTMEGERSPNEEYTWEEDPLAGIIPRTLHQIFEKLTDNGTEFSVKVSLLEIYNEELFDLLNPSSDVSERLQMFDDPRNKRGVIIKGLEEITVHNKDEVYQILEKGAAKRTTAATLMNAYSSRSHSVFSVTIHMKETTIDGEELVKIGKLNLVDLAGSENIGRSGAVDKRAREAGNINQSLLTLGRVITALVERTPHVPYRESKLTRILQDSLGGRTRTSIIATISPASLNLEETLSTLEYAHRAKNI
Assay: KSP ATPase assay (IC50 / Ki)
Assay type: biochemical
Conditions: enantiomer 2 from chiral chromatography; read-out: IC50 (μM) Enantiomer 2
PROPERTY: IC50 (µM)
Please state the figure in µM; there is no need to write the unit.

The cases that follow already have their IC50 on record.
>>> result_value("CCC(c1nc2ccccc2c(=O)n1Cc1ccccc1)N(CCN(C)C)C(=O)c1ccc(Br)cc1 (single isomer, unassigned)")
0.03
>>> result_value("CCC(c1nc2ccccc2c(=O)n1Cc1ccccc1)N(CCN(C)C)C(=O)c1cccc2ccccc12 (single isomer, unassigned)")
6.6

Next:
Give me measured IC50, please, for this compound: CC(c1nc2ccccc2c(=O)n1Cc1ccccc1)N(CCN(C)C)C(=O)c1ccc(Br)cc1 (single isomer, unassigned)
1.3
